# relative viability values compiled below
Tested on: A-427
Experiment: relative viability (nuclei count vs DMSO), 5 days (fraction); higher = more cells survive
Conditions: first compound 0.01 µM

CCN(CC)CCCCNc1ncc2cc(-c3cc(OC)cc(OC)c3)c(NC(=O)NC(C)(C)C)nc2n1 + CCNC(=O)c1noc(-c2cc(C(C)C)c(O)cc2O)c1-c1ccc(CN2CCOCC2)cc1 [Luminespib] (partner 0.01 µM): 1.01
O=c1cc(N2CCOCC2)oc2c(-c3cccc4c3sc3ccccc34)cccc12 + C[C@]1(O)C[C@@H](c2nc(-c3ccc4ccc(-c5ccccc5)nc4c3)c3c(N)nccn32)C1 [Linsitinib] (partner 1 µM): 1.13
O=c1cc(N2CCOCC2)oc2c(-c3cccc4c3sc3ccccc34)cccc12 + Cc1cc(Nc2cc(N3CCN(C)CC3)nc(Sc3ccc(NC(=O)C4CC4)cc3)n2)n[nH]1 [Tozasertib] (partner 0.1 µM): 0.232
CCN(CC)CCCCNc1ncc2cc(-c3cc(OC)cc(OC)c3)c(NC(=O)NC(C)(C)C)nc2n1 + O=C(CCCCCCC(=O)Nc1ccccc1)NO [Vorinostat] (partner 1 µM): 0.806
CCN(CC)CCCCNc1ncc2cc(-c3cc(OC)cc(OC)c3)c(NC(=O)NC(C)(C)C)nc2n1 + Nc1ncn([C@H]2C[C@H](O)[C@@H](CO)O2)c(=O)n1 [Decitabine] (partner 2 µM): 0.626

For record CCN(CC)CCCCNc1ncc2cc(-c3cc(OC)cc(OC)c3)c(NC(=O)NC(C)(C)C)nc2n1 + CC(=O)Nc1cccc(-n2c(=O)n(C3CC3)c(=O)c3c(Nc4ccc(I)cc4F)n(C)c(=O)c(C)c32)c1 [Trametinib] (partner 0.02 µM) the listed relative viability is 0.784

For record O=c1cc(N2CCOCC2)oc2c(-c3cccc4c3sc3ccccc34)cccc12 + COc1cc2c(Oc3ccc(NC(=O)C4(C(=O)Nc5ccc(F)cc5)CC4)cc3F)ccnc2cc1OCCCN1CCOCC1 [Foretinib] (partner 0.25 µM) the listed relative viability is 1.04

For record CCN(CC)CCCCNc1ncc2cc(-c3cc(OC)cc(OC)c3)c(NC(=O)NC(C)(C)C)nc2n1 + CS(=O)(=O)N1CCN(Cc2cc3nc(-c4cccc5[nH]ncc45)nc(N4CCOCC4)c3s2)CC1 [Pictilisib] (partner 1 µM) the listed relative viability is 0.704

For record O=c1cc(N2CCOCC2)oc2c(-c3cccc4c3sc3ccccc34)cccc12 + C[C@@H](Oc1cc(-c2cnn(C3CCNCC3)c2)cnc1N)c1c(Cl)ccc(F)c1Cl [Crizotinib] (partner 1 µM) the listed relative viability is 0.983

For record O=c1cc(N2CCOCC2)oc2c(-c3cccc4c3sc3ccccc34)cccc12 + CC(C)C[C@H](NC(=O)[C@H](Cc1ccccc1)NC(=O)c1cnccn1)B(O)O [Bortezomib] (partner 0.002 µM) the listed relative viability is 0.991

###

System: NCI-H2085
Experiment: relative viability (nuclei count vs DMSO), 5 days (fraction); higher = more cells survive
Conditions: first compound 0.3162 µM
Experimental readout: relative viability
A bare number is all that is needed in reply.

Worked cases, relative viability given:
CCN(CC)CCCCNc1ncc2cc(-c3cc(OC)cc(OC)c3)c(NC(=O)NC(C)(C)C)nc2n1 + N=C(N)NC(=N)NCCc1ccccc1 [Phenformin] (partner 250 µM): 0.808
O=c1cc(N2CCOCC2)oc2c(-c3cccc4c3sc3ccccc34)cccc12 + Cc1nc(Nc2ncc(C(=O)Nc3c(C)cccc3Cl)s2)cc(N2CCN(CCO)CC2)n1 [Dasatinib] (partner 0.075 µM): 0.225

Okay, now this molecule:
Given the molecule CCN(CC)CCCCNc1ncc2cc(-c3cc(OC)cc(OC)c3)c(NC(=O)NC(C)(C)C)nc2n1 + Nc1ncn([C@H]2C[C@H](O)[C@@H](CO)O2)c(=O)n1 [Decitabine] (partner 2 µM) and test system NCI-H2085, the measured relative viability is 0.533

Numbers sourced from the supplement of paper PMC10307832.
